Consider the following sequences; for each one, report its IC50.
- TESTED_ON: HLA-A*03:01
- PROCEDURE_SUMMARY: IEDB peptide-MHC binding, purified MHC/competitive/radioactivity; bounds were set here for any values at or beyond the usual limits of such assays
- DETAILS: source organism: unidentified
Answer with the number, then the unit.

I am curious: what IC50 value has been reported for "QFLEENTNILK" ?
18.6 µM

I am curious: what IC50 value has been reported for "GFQNALLVR" ?
8.48 µM

I am curious: what IC50 value has been reported for "RSLTGILGK" ?
0.238 µM

====

- TESTED_ON: HLA-B*27:05
- PROCEDURE_SUMMARY: IEDB peptide-MHC binding, purified MHC/competitive/radioactivity; bounds were set here for any values at or beyond the usual limits of such assays
- DETAILS: source organism: unidentified
Consider the following sequences; for each one, report its pIC50.
Notebook: values listed as pIC50 are -log10 of the concentration (mol/L).

I am curious: what pIC50 value has been reported for "RRVSQGLLGK" ?
8.80

I am curious: what pIC50 value has been reported for "PRGSGGIGL" ?
6.47

I am curious: what pIC50 value has been reported for "AHKEIHQQL" ?
7.08

I am curious: what pIC50 value has been reported for "GKLCQHIIKR" ?
5.24

I am curious: what pIC50 value has been reported for "PKLLGPLSL" ?
4.56

I am curious: what pIC50 value has been reported for "VRSPGATASSL" ?
6.01

I am curious: what pIC50 value has been reported for "GRNKLLQSW" ?
5.00

I am curious: what pIC50 value has been reported for "RRYNGGVGRCQ" ?
7.80

I am curious: what pIC50 value has been reported for "GRVCSNRHGLIR" ?
6.18

I am curious: what pIC50 value has been reported for "GRFEVGKKICLG" ?
7.49
